B1: H2-Kb / E9 (parent)
chain 1: QQKVQQSPESLTVSEGAMASLNCTFSDRSSDNFRWYRQHSGKGLEVLVSIFSDGEKEEGSFTAHLNRASLHVFLHIREPQPSDSALYLCAVSRSSGSWQLIFGSGTQLTVMP
chain 2: NSGVVQSPRYIIKGKGERSILKCIPISGHLSVAWYQQTQGQELKFFIQHYDKMERDKGNLPSRFSVQQFDDYHSEMNMSALELEDSAVYFCASSRDSNNQAPLFGEGTRLSVL
chain 3: not shown
chain 4: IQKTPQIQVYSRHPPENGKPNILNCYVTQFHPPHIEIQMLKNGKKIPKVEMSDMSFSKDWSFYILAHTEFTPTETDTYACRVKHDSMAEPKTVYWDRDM
chain 5: SIINFEKL

- Variants of: B1
- PROTOCOL_DESCRIPTION: % of reporter cells activated (NFAT-GFP), raw; note: test concentration or dose not given here
- CONDITION_DESCRIPTION: with E9; scale: % of reporter cells activated
MEASUREMENT_LABEL: ratio to parent
API note: the answer field is a bare number with no unit suffix.

In the examples that follow, each entry is paired with its recorded ratio to parent.
> print(dat)
   variant.label  numeric.value
1    chain 5 I2V           2.13
2    chain 5 I2K            1.2
3    chain 5 S1V           1.86
4    chain 5 S1M            1.5

The recorded ratio to parent for chain 5 N4F is 1.38

The recorded ratio to parent for chain 5 N4P is 2.07

The recorded ratio to parent for chain 5 I2T is 2.01

The recorded ratio to parent for chain 5 I3K is 2.31

The recorded ratio to parent for chain 5 F5D is 3.05

Source: paper PMC11480844
